Listed compounds paired with reported IC50
# SYSTEM_UNDER_TEST: GABA-A receptor
# PROTOCOL: 35S-TBPS binding assay (GABAA receptor binding ability assay)
# DETAILS: rat cerebral cortex cell membrane, 5 μM GABA, 2 nM 35S-TBPS; read-out: IC50 on inhibiting the TBPS binding activity, 35S-TBPS bindng assay
# Procedure: 1. The cerebral cortex of male Sprague-Dawley rat was isolated. 2. […] 9. The protein concentration was measured by the bicinchoninic acid (BCA) method. […] 11. 40 μL of scintillation solution was added to each well, and the CPM value was read with TopCount. In the experiment, the CPM (counts per minute) value was read with TopCount. […] The IC50 of the compound was calculated according to the following 4-parameter nonlinear logic formula: Y=Bottom+(Top−Bottom)/(1+10^((Log IC50−X)*HillSlope)), […]
Report as a plain number; the unit nM is understood.

Field: example entries. Status: answers known.
Qu. Can you share its IC50? I mean this compound: "C[C@@]1(O)CC[C@H]2[C@H](CC[C@@H]3[C@@H]2CC[C@@]2(C)[C@H]3[C@@H]3C[C@@H]3[C@@H]2C(=O)Cn2cc(F)cn2)C1"
Ans. 28.7

Qu. # lookup: IC50 of "C[C@@]1(O)CC[C@H]2[C@H](CC[C@@H]3[C@@H]2CC[C@@]2(C)[C@H]3[C@@H]3C[C@@H]3[C@@H]2C(=O)Cn2ccc(C#N)n2)C1"
Ans. 14.9

Qu. Query: IC50; subject: "C[C@@]1(O)CC[C@H]2[C@H](CC[C@@H]3[C@@H]2CC[C@@]2(C)[C@H]3[C@@H]3C[C@@H]3[C@@H]2C(=O)Cn2cc(C#N)c(C3CC3)n2)C1"
Ans. 18.3

Qu. What does the data say about its IC50? Entry: "C[C@@H]1C[C@H](C(=O)Cn2ncnn2)[C@@]2(C)CC[C@H]3[C@@H](CC[C@@H]4C[C@](C)(O)CC[C@@H]43)[C@H]12"
Ans. 6.1

// below: IC50 requested for another compound
Qu. Fill in: IC50 of "C[C@@]1(O)CC[C@H]2[C@H](CC[C@@H]3[C@@H]2CC[C@@]2(C)[C@H]3[C@@H]3C[C@@H]3[C@@H]2C(=O)Cn2cc(C#N)cn2)C1" is ___
Ans. 24.3

----------
# SYSTEM_UNDER_TEST: GABA-A receptor
# PROTOCOL: 35S-TBPS binding assay (GABAA receptor binding ability assay)
# DETAILS: rat cerebral cortex cell membrane, 5 μM GABA, 2 nM 35S-TBPS; read-out: IC50 on inhibiting the TBPS binding activity, 35S-TBPS bindng assay
VALUE_TYPE: IC50 (nM)
Your answer should be a plain number; it is taken to be in nM.

Worked cases, IC50 given:
Qu. Reported IC50, compound C[C@@]1(O)CC[C@H]2[C@H](CC[C@@H]3[C@@H]2CC[C@@]2(C)[C@H]3[C@@H]3C[C@@H]3[C@@H]2C(=O)Cn2ncnn2)C1 [Example 7] : ____
Ans. 21.3

Qu. Report IC50 for CC[C@@H]1C[C@H](C(=O)Cn2ccc(C(F)(F)F)n2)[C@@]2(C)CC[C@H]3[C@@H](CC[C@@H]4C[C@](C)(O)CC[C@@H]43)[C@H]12 [Example 91] please.
Ans. 25.2

Qu. Field request: IC50 | item: C[C@@H]1C[C@H](C(=O)Cn2cc(C#N)c(C3CC3)n2)[C@@]2(C)CC[C@H]3[C@@H](CC[C@@H]4C[C@](C)(O)CC[C@@H]43)[C@H]12 [Example 47]
Ans. 7.6

Could you now consider this next compound?
Qu. Suppose we examine the compound C[C@@H]1C[C@H](C(=O)Cn2ccnn2)[C@@]2(C)CC[C@H]3[C@@H](CC[C@@H]4C[C@](C)(O)CC[C@@H]43)[C@H]12 [Example 42] ; what IC50 value has been reported?
Ans. 24.6

----------
// reported Mean (immobility, %) per item
# System: ICR mice
# PROTOCOL: Forced swimming model in mice
# Type: in vivo
# DETAILS: dose 5 mpk p.o., floating time/240 s
Give the number; % is assumed, so skip it.

Qu. Bench note: what Mean (immobility, %) did "C[C@@H]1C[C@H](C(=O)Cn2cc(C#N)cn2)[C@@]2(C)CC[C@H]3[C@@H](CC[C@@H]4C[C@](C)(O)CC[C@@H]43)[C@H]12" show?
Ans. 57.60

Qu. What value of measured Mean (immobility, %) is listed for "Cc1nnn(CC(=O)[C@H]2C[C@@H](C3CC3)[C@H]3[C@@H]4CC[C@@H]5C[C@](C)(O)CC[C@@H]5[C@H]4CC[C@@]32C)n1" ?
Ans. 38.00

Qu. Which Mean (immobility, %) is reported for this compound? "C[C@@]1(O)CC[C@H]2[C@H](CC[C@@H]3[C@@H]2CC[C@@]2(C)[C@H]3[C@H](C3CC3)C[C@@H]2C(=O)Cn2ncnn2)C1"
Ans. 33.54

Moving on to another compound below.
Qu. Any idea what its Mean (immobility, %) is? The compound is "C[C@@]1(O)CC[C@H]2[C@H](CC[C@@H]3[C@@H]2CC[C@@]2(C)[C@H]3[C@H](C3CC3)C[C@@H]2C(=O)Cn2ccnn2)C1"
Ans. 30.72

----------
# SYSTEM_UNDER_TEST: human GABAA receptor α1, β2 and γ2 subunit (HEK293T cell line) (Homo sapiens, UniProt P14867+P47870)
# Sequence (P14867 28-456): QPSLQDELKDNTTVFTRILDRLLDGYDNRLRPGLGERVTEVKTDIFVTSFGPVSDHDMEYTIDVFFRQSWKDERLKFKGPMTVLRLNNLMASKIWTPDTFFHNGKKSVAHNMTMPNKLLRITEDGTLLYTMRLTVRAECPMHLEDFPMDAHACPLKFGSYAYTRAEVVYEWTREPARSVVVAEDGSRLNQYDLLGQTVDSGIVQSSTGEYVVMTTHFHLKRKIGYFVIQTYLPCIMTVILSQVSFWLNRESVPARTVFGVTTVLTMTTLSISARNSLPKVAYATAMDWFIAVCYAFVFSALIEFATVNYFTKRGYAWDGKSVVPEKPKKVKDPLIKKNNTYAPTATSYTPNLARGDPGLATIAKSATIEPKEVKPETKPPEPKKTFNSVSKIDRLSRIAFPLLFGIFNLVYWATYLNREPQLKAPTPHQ
# Sequence (P47870 25-512 limits assumed): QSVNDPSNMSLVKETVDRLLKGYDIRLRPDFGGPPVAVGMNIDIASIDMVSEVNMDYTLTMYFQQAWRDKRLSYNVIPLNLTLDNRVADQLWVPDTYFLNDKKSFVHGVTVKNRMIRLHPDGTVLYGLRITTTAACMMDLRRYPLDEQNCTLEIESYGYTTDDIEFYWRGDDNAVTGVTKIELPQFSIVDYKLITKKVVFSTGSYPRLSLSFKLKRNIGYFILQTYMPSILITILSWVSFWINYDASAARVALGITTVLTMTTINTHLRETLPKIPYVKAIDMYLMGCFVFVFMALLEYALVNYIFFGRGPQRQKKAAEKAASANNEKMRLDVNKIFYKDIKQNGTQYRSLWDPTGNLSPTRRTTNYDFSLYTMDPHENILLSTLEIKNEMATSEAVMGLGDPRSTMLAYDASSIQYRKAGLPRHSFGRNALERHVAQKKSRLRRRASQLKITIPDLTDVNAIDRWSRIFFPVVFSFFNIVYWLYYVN
# Sequence (P18507 40-475 partner): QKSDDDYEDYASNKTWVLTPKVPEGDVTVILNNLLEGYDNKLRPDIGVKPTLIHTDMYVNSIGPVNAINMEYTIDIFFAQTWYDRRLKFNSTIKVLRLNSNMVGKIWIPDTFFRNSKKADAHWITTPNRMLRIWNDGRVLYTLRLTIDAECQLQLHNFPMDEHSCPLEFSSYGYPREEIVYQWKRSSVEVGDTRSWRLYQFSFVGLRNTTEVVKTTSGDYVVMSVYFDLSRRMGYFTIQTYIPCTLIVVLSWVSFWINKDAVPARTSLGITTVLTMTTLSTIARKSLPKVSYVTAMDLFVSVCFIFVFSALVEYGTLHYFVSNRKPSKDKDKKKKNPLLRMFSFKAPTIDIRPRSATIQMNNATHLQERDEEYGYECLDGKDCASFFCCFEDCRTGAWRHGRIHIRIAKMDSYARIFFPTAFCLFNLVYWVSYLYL
# PROTOCOL: Positive regulatory effect on GABAA receptor, manual patch clamp
# DETAILS: whole-cell current, 1 μM GABA
Measured pEC50 values are reported for all entries that follow.
In textbook form, pEC50 equals minus log to base ten of the concentration in mol/L.

Example cases with answers are listed next.
Qu. Can you share its pEC50? I mean this compound: "C[C@@H]1C[C@H](C(=O)Cn2ccc(C(F)(F)F)n2)[C@@]2(C)CC[C@H]3[C@@H](CC[C@@H]4C[C@](C)(O)CC[C@@H]43)[C@H]12"
Ans. 7.13

Qu. What value of measured pEC50 is listed for "C[C@@]1(O)CC[C@H]2[C@H](CC[C@@H]3[C@@H]2CC[C@@]2(C)[C@H]3[C@H](C3CC3)C[C@@H]2C(=O)Cn2nc(C#N)cc2C#N)C1" ?
Ans. 7.08

Qu. Name the reported pEC50 value associated with the compound "C[C@@H]1C[C@H](C(=O)Cn2cc(C#N)c(Cl)n2)[C@@]2(C)CC[C@H]3[C@@H](CC[C@@H]4C[C@](C)(O)CC[C@@H]43)[C@H]12"
Ans. 7.31

Qu. # get_value(readout='pEC50', item= "C[C@@H]1C[C@H](C(=O)Cn2ccc(C#N)n2)[C@@]2(C)CC[C@H]3[C@@H](CC[C@@H]4C[C@](C)(O)CC[C@@H]43)[C@H]12" )
Ans. 7.24

Qu. So what does the record say about pEC50 for "C[C@@H]1C[C@H](C(=O)Cn2nc(C#N)cc2C#N)[C@@]2(C)CC[C@H]3[C@@H](CC[C@@H]4C[C@](C)(O)CC[C@@H]43)[C@H]12" ?
Ans. 7.37

Qu. Tell me the measured pEC50 of "Cc1nnn(CC(=O)[C@H]2C[C@@H](C3CC3)[C@H]3[C@@H]4CC[C@@H]5C[C@](C)(O)CC[C@@H]5[C@H]4CC[C@@]32C)n1" , please.
Ans. 6.82

More entries:
Qu. GET /values?readout=pEC50&item= "C[C@@H]1C[C@H](C(=O)Cn2cc(C#N)cn2)[C@@]2(C)CC[C@H]3[C@@H](CC[C@@H]4C[C@](C)(O)CC[C@@H]43)[C@H]12"
Ans. 7.22

Qu. What value of measured pEC50 is listed for "C[C@@H]1C[C@H](C(=O)Cn2nccn2)[C@@]2(C)CC[C@H]3[C@@H](CC[C@@H]4C[C@](C)(O)CC[C@@H]43)[C@H]12" ?
Ans. 6.89

----------
# SYSTEM_UNDER_TEST: GABA-A receptor
# PROTOCOL: 35S-TBPS binding assay (GABAA receptor binding ability assay)
# DETAILS: rat cerebral cortex cell membrane, 5 μM GABA, 2 nM 35S-TBPS; read-out: IC50 on inhibiting the TBPS binding activity, 35S-TBPS bindng assay
VALUE_TYPE: IC50 (nM)
Note: unit nM is implicit; provide only the numeric part.

Here is how some molecules turned out for IC50.
Qu. Looking for the measured IC50 of "C[C@@H]1C[C@H](C(=O)Cn2cc(C(F)(F)F)cn2)[C@@]2(C)CC[C@H]3[C@@H](CC[C@@H]4C[C@](C)(O)CC[C@@H]43)[C@H]12" , can you help?
Ans. 6.2

Qu. For "C[C@@]1(O)CC[C@H]2[C@H](CC[C@@H]3[C@@H]2CC[C@@]2(C)[C@H]3[C@@H]3C[C@@H]3[C@@H]2C(=O)Cn2cc([N+](=O)[O-])cn2)C1" , what is its reported IC50?
Ans. 10.2

Qu. I am curious: what IC50 value has been reported for "Cc1nnnn1CC(=O)[C@H]1[C@H]2C[C@H]2[C@H]2[C@@H]3CC[C@@H]4C[C@](C)(O)CC[C@@H]4[C@H]3CC[C@@]21C" ?
Ans. 11.4

Qu. What value of measured IC50 is listed for "C[C@@]1(O)CC[C@H]2[C@H](CC[C@@H]3[C@@H]2CC[C@@]2(C)[C@H]3[C@H](C3CC3)C[C@@H]2C(=O)Cn2ncnn2)C1" ?
Ans. 21.4

Qu. For the molecule shown here, "C[C@@H]1C[C@H](C(=O)Cn2ccc(C(F)(F)F)n2)[C@@]2(C)CC[C@H]3[C@@H](CC[C@@H]4C[C@](C)(O)CC[C@@H]43)[C@H]12" , give the reported IC50.
Ans. 8

***
Qu. Which IC50 is reported for this molecule? "CCOC(=O)c1cnn(CC(=O)[C@H]2[C@H]3C[C@H]3[C@H]3[C@@H]4CC[C@@H]5C[C@](C)(O)CC[C@@H]5[C@H]4CC[C@@]32C)c1"
Ans. 5

Qu. Please give the measured IC50 for this molecule: "C[C@@]1(O)CC[C@H]2[C@H](CC[C@@H]3[C@@H]2CC[C@@]2(C)[C@H]3[C@@H]3C[C@@H]3[C@@H]2C(=O)Cn2nc(C#N)cc2C#N)C1"
Ans. 6.1

Qu. What measured IC50 goes with "C[C@@]1(O)CC[C@H]2[C@H](CC[C@@H]3[C@@H]2CC[C@@]2(C)[C@H]3[C@H](C3CC3)C[C@@H]2C(=O)Cn2cc(C#N)c(Cl)n2)C1" ?
Ans. 24.4

Qu. // IC50 lookup, key: "C[C@@]1(O)CC[C@H]2[C@H](CC[C@@H]3[C@@H]2CC[C@@]2(C)[C@H]3[C@@H]3C[C@@H]3[C@@H]2C(=O)Cn2cc(-c3ncco3)cn2)C1"
Ans. 15.8

Qu. What does the record list as IC50 for "C[C@@]1(O)CC[C@H]2[C@H](CC[C@@H]3[C@@H]2CC[C@@]2(C)[C@H]3[C@@H]3C[C@@H]3[C@@H]2C(=O)Cn2nccn2)C1" ?
Ans. 14.7
